Test System: PKBα (Homo sapiens, UniProt P31749)
Sequence (P31749 118-480 limits assumed): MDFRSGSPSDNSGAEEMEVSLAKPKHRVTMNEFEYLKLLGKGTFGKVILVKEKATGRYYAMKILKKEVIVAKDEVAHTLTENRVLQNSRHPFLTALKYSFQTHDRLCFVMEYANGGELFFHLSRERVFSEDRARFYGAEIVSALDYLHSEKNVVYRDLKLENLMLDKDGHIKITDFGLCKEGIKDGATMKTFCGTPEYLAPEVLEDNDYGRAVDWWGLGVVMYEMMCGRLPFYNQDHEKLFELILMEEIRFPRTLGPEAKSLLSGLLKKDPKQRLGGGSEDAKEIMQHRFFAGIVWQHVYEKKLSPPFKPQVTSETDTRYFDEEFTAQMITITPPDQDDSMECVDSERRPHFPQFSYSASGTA
Experiment Notes: PKB kinase assay (P33-labeled ATP, synthetic peptide substrate, filter plate)
Test Context: PKBα enzyme (full length or kinase domain with pleckstrin domain deleted)
pIC50: −log10 of the molar value.
Metric Name: pIC50

> print(dat)
                            smiles.notation  metric.name  endpoint.result
1  N[C@H](CCc1cc(-c2ccc3cnccc3c2)no1)Cc1ccccc1        pIC50     5.00 to 6.00
2  N[C@H](CNc1cnn(-c2ccc3cnccc3c2)c1)Cc1ccc(C(F)(F)F)cc1        pIC50     6.00 to 7.30
3  N[C@H](CNc1cc(-c2ccc3cnccc3c2)no1)Cc1ccccc1Cl        pIC50     6.00 to 7.30
4     NCCNc1onc(-c2ccc3cnccc3c2)c1Cc1ccccc1        pIC50     5.00 to 6.00
5  N[C@H](CCn1cc(-c2ccc3c(c2)CC(=O)N3)cn1)Cc1ccc(Cl)cc1        pIC50           > 7.30
6  N[C@@H](Cc1ccc(C(F)(F)F)cc1)c1nc(-c2ccc3cnccc3c2)no1        pIC50     5.00 to 6.00
7  N[C@H](CCc1nnc(-c2ccc3cnccc3c2)o1)Cc1ccc(C(F)(F)F)cc1        pIC50     6.00 to 7.30
8  Cc1ccc(C[C@H](N)CCn2cc(-c3ccc4cnccc4c3)cn2)cc1        pIC50     6.00 to 7.30
9  N[C@H](CNc1cc(-c2ccc3cnccc3c2)no1)Cc1c[nH]c2ccccc12        pIC50     6.00 to 7.30

Value source: patent US7897619B2
